src = PubChem BioAssay (NCATS)

assay: Quantitative High-Throughput drug screen in 47 multiple myeloma cell lines against the NCATS MIPE library collection: SKMM1_PLB cell viability assay (AID 1919863); conditions: SKMM1 myeloma viability, CellTiter-Glo ATP, 48 h; hits give low values; further: series mostly up to about 46 µM; nearly all actives have a fitted effect of over 35% in size
Results filed as inconclusive are left out.
Catalogue of viability values
Express it in %; write the number only.

Worked examples, 5 compounds total:
c1cc(CN2CCCNCCNCCCNCC2)ccc1CN1CCCNCCNCCCNCC1: 136
CC(=O)O[C@@]12CO[C@H]1C[C@H](O)[C@@]1(C)C(=O)[C@H](O)C3=C(C)[C@@H](OC(=O)C(O)[C@@H](NC(=O)OC(C)(C)C)c4ccccc4)C[C@@](O)([C@@H](OC(=O)c4ccccc4)[C@@H]21)C3(C)C (stereo partly drawn): 60
CC(=O)OCC(=O)[C@@]12N=C(C)O[C@H]1C[C@H]1[C@@H]3CCC4=CC(=O)C=C[C@]4(C)[C@@H]3[C@@H](O)C[C@@]12C: 135
C[C@](Cc1c[nH]c2ccccc12)(NC(=O)OC1C2CC3CC(C2)CC1C3)C(=O)NC[C@H](NC(=O)CCC(=O)O)c1ccccc1 (stereo partly drawn): 114
Cc1onc(-c2ccccc2)c1C(=O)N[C@@H]1C(=O)N2[C@@H](C(=O)O)C(C)(C)S[C@@H]12: 123

# input Given CC(Oc1ccc(O)cc1)(P(=O)(O)O)P(=O)(O)O , state its recorded viability.
# output 108

# input Using the record for Cc1cc(C(=O)NOCCO)c(Nc2ccc(I)cc2F)n(C)c1=O , report its viability.
# output 90.9

# input Would you mind telling me what viability value was observed for CCn1c(=O)c2c(nc(C=Cc3ccc(OC)c(OC)c3)n2C)n(CC)c1=O ?
# output 123
